ASSAY_SYSTEM: Transitional endoplasmic reticulum ATPase (Homo sapiens, UniProt P55072)
Sequence (P55072 whole entry): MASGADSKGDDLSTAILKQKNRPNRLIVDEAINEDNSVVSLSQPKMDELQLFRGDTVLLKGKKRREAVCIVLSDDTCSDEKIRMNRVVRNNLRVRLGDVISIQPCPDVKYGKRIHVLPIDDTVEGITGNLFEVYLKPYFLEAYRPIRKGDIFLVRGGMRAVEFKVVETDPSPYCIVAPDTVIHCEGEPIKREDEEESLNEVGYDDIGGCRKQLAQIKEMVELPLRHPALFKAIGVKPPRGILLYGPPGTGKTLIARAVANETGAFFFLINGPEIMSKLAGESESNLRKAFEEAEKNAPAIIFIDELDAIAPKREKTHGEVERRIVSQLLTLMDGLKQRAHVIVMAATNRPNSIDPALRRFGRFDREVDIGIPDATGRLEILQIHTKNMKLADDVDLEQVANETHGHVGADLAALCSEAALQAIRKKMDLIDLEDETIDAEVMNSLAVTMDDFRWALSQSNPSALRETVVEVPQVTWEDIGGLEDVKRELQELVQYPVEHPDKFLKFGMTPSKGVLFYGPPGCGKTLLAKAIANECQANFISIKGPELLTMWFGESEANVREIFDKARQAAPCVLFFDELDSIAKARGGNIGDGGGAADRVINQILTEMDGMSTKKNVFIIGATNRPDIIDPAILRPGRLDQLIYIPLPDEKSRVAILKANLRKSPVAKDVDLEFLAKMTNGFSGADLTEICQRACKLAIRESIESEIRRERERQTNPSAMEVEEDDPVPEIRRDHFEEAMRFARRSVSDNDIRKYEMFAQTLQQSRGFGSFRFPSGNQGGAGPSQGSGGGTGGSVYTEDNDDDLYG
ASSAY_DETAILS: biochemical
Description: Inhibition of human full length VCP (2 to 806 residues) expressed in High5 insect cells assessed as reduction in ATPase activity by measuring ADP formation by NADH coupled assay
Lab note: compare IC50 with 0.2 µM, writing 1 (yes) if less and 0 (no) if equal or more.

q: API: query returns whether the compound falls strictly under 0.2 µM in IC50. Query: "NC(=O)[C@H]1CC[C@H](CNc2nc(NCc3ccccc3)cc(-c3cccnc3)n2)CC1"
a: 1 (yes)

q: API: query returns whether the compound falls strictly under 0.2 µM in IC50. Query: "O=C(O)[C@H]1CC[C@H](CNc2nc(-c3ccccc3)cc(-c3cccc(F)c3)n2)CC1"
a: 0 (no)

q: API: query returns whether the compound falls strictly under 0.2 µM in IC50. Query: "O=C(O)[C@H]1CC[C@H](CNc2nc(-c3ccccc3)cc(-c3ccccc3Cl)n2)CC1"
a: 0 (no)

q: API: query returns whether the compound falls strictly under 0.2 µM in IC50. Query: "NC(=O)[C@H]1CC[C@H](CNc2nc(NCc3ccccc3Br)cc(-c3ccccc3)n2)CC1"
a: 0 (no)

q: API: query returns whether the compound falls strictly under 0.2 µM in IC50. Query: "Cc1cc(-c2ccccc2C)nc(NC[C@H]2CC[C@H](C(=O)O)CC2)n1"
a: 0 (no)

q: API: query returns whether the compound falls strictly under 0.2 µM in IC50. Query: "COc1cccc(-c2cc(-c3ccccc3)nc(NC[C@H]3CC[C@H](C(=O)O)CC3)n2)c1"
a: 0 (no)

q: API: query returns whether the compound falls strictly under 0.2 µM in IC50. Query: "NNC(=O)[C@H]1CC[C@H](CNc2nc(NCc3ccccc3)cc(-c3ccccc3)n2)CC1"
a: 0 (no)

q: API: query returns whether the compound falls strictly under 0.2 µM in IC50. Query: "Cc1cc(-c2ccccc2)nc(Sc2ccc(C(=O)O)cc2)n1"
a: 0 (no)

q: API: query returns whether the compound falls strictly under 0.2 µM in IC50. Query: "NC(=O)[C@H]1CC[C@H](CNc2nc(NCc3ccccc3)cc(-c3ccccc3F)n2)CC1"
a: 1 (yes)

q: API: query returns whether the compound falls strictly under 0.2 µM in IC50. Query: "O=C(O)[C@H]1CC[C@H](CNc2nc(NCc3ccccc3)cc(-c3ccccc3)n2)CC1"
a: 1 (yes)

q: API: query returns whether the compound falls strictly under 0.2 µM in IC50. Query: "CC(=O)c1cccc(-c2cc(NCc3ccccc3)nc(NC[C@H]3CC[C@H](C(N)=O)CC3)n2)c1"
a: 1 (yes)

q: API: query returns whether the compound falls strictly under 0.2 µM in IC50. Query: "Cc1cc(-c2ccccc2)nc(SCCc2ccc(C(=O)O)cc2)n1"
a: 0 (no)

q: API: query returns whether the compound falls strictly under 0.2 µM in IC50. Query: "Cc1cc(-c2ccccc2)nc(NCc2ccc(C(=O)O)cc2)n1"
a: 0 (no)

q: API: query returns whether the compound falls strictly under 0.2 µM in IC50. Query: "NC(=O)[C@H]1CC[C@H](CNc2nc(NCc3ccccc3)cc(-c3csc4ccccc34)n2)CC1"
a: 1 (yes)

q: API: query returns whether the compound falls strictly under 0.2 µM in IC50. Query: "O=C(O)[C@H]1CC[C@H](CNc2nc(-c3ccccc3)cc(-c3ccc([N+](=O)[O-])cc3)n2)CC1"
a: 0 (no)

q: API: query returns whether the compound falls strictly under 0.2 µM in IC50. Query: "NC(=O)[C@H]1CC[C@H](CNc2nc(NCc3ccccc3)cc(-c3ccc4[nH]ccc4c3)n2)CC1"
a: 1 (yes)

q: API: query returns whether the compound falls strictly under 0.2 µM in IC50. Query: "O=C(O)[C@H]1CC[C@H](CNc2nc(-c3ccccc3)cc(-c3ccncc3)n2)CC1"
a: 0 (no)

q: API: query returns whether the compound falls strictly under 0.2 µM in IC50. Query: "Nc1ccc(-c2cc(-c3ccccc3)nc(NC[C@H]3CC[C@H](C(=O)O)CC3)n2)cc1"
a: 1 (yes)

q: API: query returns whether the compound falls strictly under 0.2 µM in IC50. Query: "CCOc1ccc(-c2cc(NCc3ccccc3)nc(NC[C@H]3CC[C@H](C(N)=O)CC3)n2)cc1"
a: 0 (no)

q: API: query returns whether the compound falls strictly under 0.2 µM in IC50. Query: "O=C(O)[C@H]1CC[C@H](CNc2nc(-c3ccccc3)cc(-c3ccccc3)n2)CC1"
a: 0 (no)

q: API: query returns whether the compound falls strictly under 0.2 µM in IC50. Query: "Cc1ccc(CNc2cc(-c3ccccc3)nc(NC[C@H]3CC[C@H](C(N)=O)CC3)n2)cc1"
a: 0 (no)

q: API: query returns whether the compound falls strictly under 0.2 µM in IC50. Query: "Cc1cc(-c2ccc(Cl)cc2)nc(NC[C@H]2CC[C@H](C(=O)O)CC2)n1"
a: 0 (no)

q: API: query returns whether the compound falls strictly under 0.2 µM in IC50. Query: "COc1ccccc1-c1cc(C)nc(NC[C@H]2CC[C@H](C(=O)O)CC2)n1"
a: 0 (no)

q: API: query returns whether the compound falls strictly under 0.2 µM in IC50. Query: "Cc1cc(-c2ccc(F)cc2)nc(NC[C@H]2CC[C@H](C(=O)O)CC2)n1"
a: 0 (no)

q: API: query returns whether the compound falls strictly under 0.2 µM in IC50. Query: "CS(=O)(=O)c1cccc(-c2cc(-c3ccccc3)nc(NC[C@H]3CC[C@H](C(=O)O)CC3)n2)c1"
a: 1 (yes)

q: API: query returns whether the compound falls strictly under 0.2 µM in IC50. Query: "NC(=O)[C@H]1CC[C@H](CNc2nc(NCc3ccccc3)cc(-c3ccc(CO)cc3)n2)CC1"
a: 1 (yes)

q: API: query returns whether the compound falls strictly under 0.2 µM in IC50. Query: "Cc1ccccc1CNc1cc(-c2ccccc2)nc(NC[C@H]2CC[C@H](C(N)=O)CC2)n1"
a: 0 (no)

q: API: query returns whether the compound falls strictly under 0.2 µM in IC50. Query: "COc1ccc(-c2cc(-c3ccccc3)nc(NC[C@H]3CC[C@H](C(=O)O)CC3)n2)cc1"
a: 0 (no)

q: API: query returns whether the compound falls strictly under 0.2 µM in IC50. Query: "NC(=O)[C@H]1CC[C@H](CNc2nc(NCc3ccccc3)cc(-c3ccsc3)n2)CC1"
a: 0 (no)

q: API: query returns whether the compound falls strictly under 0.2 µM in IC50. Query: "O=C(O)[C@H]1CC[C@H](CNc2nc(-c3ccccc3)cc(-c3ccco3)n2)CC1"
a: 0 (no)

q: API: query returns whether the compound falls strictly under 0.2 µM in IC50. Query: "CC(=O)Nc1ccc(-c2cc(NCc3ccccc3)nc(NC[C@H]3CC[C@H](C(N)=O)CC3)n2)cc1"
a: 1 (yes)

q: API: query returns whether the compound falls strictly under 0.2 µM in IC50. Query: "NC(=O)[C@H]1CC[C@H](CNc2nc(NCc3ccccc3)cc(-c3ccoc3)n2)CC1"
a: 0 (no)

q: API: query returns whether the compound falls strictly under 0.2 µM in IC50. Query: "NC(=O)[C@H]1CC[C@H](CNc2nc(NCc3ccc(Cl)cc3)cc(-c3ccccc3)n2)CC1"
a: 0 (no)
